Biological target: HNF4alpha8 (COS-7 nuclear extract) (Homo sapiens, UniProt P41235-5 1-452)
Sequence: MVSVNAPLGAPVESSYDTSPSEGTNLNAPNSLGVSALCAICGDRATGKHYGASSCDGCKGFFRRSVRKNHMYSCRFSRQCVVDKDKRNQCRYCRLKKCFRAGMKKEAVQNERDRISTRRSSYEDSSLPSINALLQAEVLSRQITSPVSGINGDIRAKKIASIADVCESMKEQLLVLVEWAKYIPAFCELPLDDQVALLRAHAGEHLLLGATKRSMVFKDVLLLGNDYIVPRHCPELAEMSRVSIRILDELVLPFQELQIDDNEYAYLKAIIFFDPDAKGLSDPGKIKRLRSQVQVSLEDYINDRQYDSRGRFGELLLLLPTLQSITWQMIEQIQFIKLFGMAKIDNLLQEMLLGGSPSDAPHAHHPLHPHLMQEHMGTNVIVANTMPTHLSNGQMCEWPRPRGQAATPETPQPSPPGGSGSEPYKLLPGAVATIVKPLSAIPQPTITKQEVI
Experiment: protein-binding microarray; COS-7 nuclear extract on double-stranded Agilent 4x180k PBM; binding buffer, salt, pH and temperature not given in the material; high values mean tight binding
Conditions: chain copies: 2; label: 3' end of strand 1 on the slide; dsDNA, one strand shown
The full ranking holds about 18,000 sequences; the median of “log2 normalized intensity” is about 0.36, and the highest 2% start at about 7.3. The sample as a whole holds a higher share of the highest values than the screen did.
quantity.measured: binding signal (log2 normalized intensity)
State just the number; it will be interpreted in log2 normalized intensity.

[in] // lookup binding signal for GGTTGCACTCTGGTGCCCTCTGAGTGTTTGGCCTAGGGAGATTAGAGTATCGGTCGA
[out] 2.54

[in] // same read-out, input: CACTCATGGTGTTTGCTTTGTGAAGGCTTAGCCTAGGGAGATTAGAGTATCGGTCGA
[out] 0.417

[in] // same read-out, input: AAAGCCACCCCTTTCTCCTCTCTTTCCATAGCCTAGGGAGATTAGAGTATCGGTCGA
[out] 0.633

[in] // same read-out, input: AGCATATTTGGCCACATCCTGTCTCCTTTAGCCTAGGGAGATTAGAGTATCGGTCGA
[out] 1.11

[in] // same read-out, input: CAGAAGTCATGTCTCATTGCCCCTTGAGCTGCCTAGGGAGATTAGAGTATCGGTCGA
[out] 3.87

[in] // same read-out, input: AGTGCACCTTAATAAGCACATTCCTTTCCCGCCTAGGGAGATTAGAGTATCGGTCGA
[out] -0.98

[in] // same read-out, input: ATGTCAGGAGCCCCACTGTAGTAAGGGAGTGCCTAGGGAGATTAGAGTATCGGTCGA
[out] -0.892

[in] // same read-out, input: ATGTGCCCTTTGGACAGAAATATCAGCAAGGCCTAGGGAGATTAGAGTATCGGTCGA
[out] 3.43

[in] // same read-out, input: TGTGACAGAAGTCATGTCTCATTGCCCCTTGCCTAGGGAGATTAGAGTATCGGTCGA
[out] 4.58

[in] // same read-out, input: TTTGTGATTACATTGAGTCCACTGAGATCAGCCTAGGGAGATTAGAGTATCGGTCGA
[out] 1.91

[in] // same read-out, input: GGAGGTGACCTTTGGTTGTCCTTACTGCTAGCCTAGGGAGATTAGAGTATCGGTCGA
[out] 4.22

[in] // same read-out, input: ACCCTCTCTGGATGCAGGTCGCCGGGAAAAGCCTAGGGAGATTAGAGTATCGGTCGA
[out] 0.74

[in] // same read-out, input: CCTCCAGCTCTTTTGAACCCAAGGCCAAACGCCTAGGGAGATTAGAGTATCGGTCGA
[out] 2.07

Values were extracted from paper PMC10726135.
